Listing: inhibition at 10 µM of selected compounds
# ASSAY_TARGET: human recombinant AChE (Homo sapiens)
# PROCEDURE_SUMMARY: biochemical
# CONDITION_SUMMARY: 10 μM; mean of triplicate
READOUT_TYPE: inhibition at 10 µM (%)

                                 mol_smiles  unit_info  numeric_readout
0  COc1cc(O)c(C(=O)/C=C/c2ccc(CC(=O)O)cc2)c(OC)c1          %             15.6
1  COc1ccc(C(=O)/C=C/c2ccc(OCCN3CCCCC3)cc2)c(O)c1          %             79.9
2  COc1ccc(C(=O)/C=C/c2ccc(OCCN3CCCC3)cc2)c(O)c1          %               83
3  CCN(CC)C(=O)Cc1ccc(/C=C/C(=O)c2c(O)cc(OC)cc2OC)cc1          %             87.5
4  CCN(CC)C(=O)Cc1ccc(/C=C/C(=O)c2cc(OC)c(OC)cc2O)cc1          %             58.5
5  COc1cc(O)c(C(=O)/C=C/c2ccc(OCCN3CCCC3)cc2)c(OC)c1          %             81.4
6  COc1ccc(O)c(C(=O)/C=C/c2ccc(CC(=O)O)cc2)c1          %               27
7  COc1cc(O)c(C(=O)/C=C/c2ccc(OCCN3CCCCC3)cc2)c(OC)c1          %             83.6
8      O=C(O)Cc1ccc(/C=C/C(=O)c2ccccc2O)cc1          %             10.7

###

pIC50: −log10 of the molar value.
Target or system equine BuChE (Equus caballus): recorded pIC50 listed per item.
READOUT_TYPE: pIC50

>>> print(df.to_string())
                                   molecule  censoring_operator  numeric_readout
0  COc1cc(O)c(C(=O)/C=C/c2ccc(OCCN3CCCC3)cc2)cc1OC [Compound 8d]                   =             4.05
1  COc1cc(O)c(C(=O)/C=C/c2ccc(OCCN3CCCC3)cc2)c(OC)c1 [Compound 8f]                   =             4.50
2  COc1ccc(C(=O)/C=C/c2ccc(OCCN3CCCC3)cc2)c(O)c1 [Compound 8b]                   =             4.18
3  COc1cc(O)c(C(=O)/C=C/c2ccc(OCCN3CCCCC3)cc2)c(OC)c1 [Compound 8e]                   =             4.74
4  CCN(CC)C(=O)Cc1ccc(/C=C/C(=O)c2c(O)cc(OC)cc2OC)cc1 [Compound 4c]                   <             4.00
5  COc1ccc(C(=O)/C=C/c2ccc(OCCN3CCCCC3)cc2)c(O)c1 [Compound 8a]                   <             4.00

###

# ASSAY_TARGET: human recombinant AChE (Homo sapiens, UniProt P22303)
# Sequence (P22303 32-614): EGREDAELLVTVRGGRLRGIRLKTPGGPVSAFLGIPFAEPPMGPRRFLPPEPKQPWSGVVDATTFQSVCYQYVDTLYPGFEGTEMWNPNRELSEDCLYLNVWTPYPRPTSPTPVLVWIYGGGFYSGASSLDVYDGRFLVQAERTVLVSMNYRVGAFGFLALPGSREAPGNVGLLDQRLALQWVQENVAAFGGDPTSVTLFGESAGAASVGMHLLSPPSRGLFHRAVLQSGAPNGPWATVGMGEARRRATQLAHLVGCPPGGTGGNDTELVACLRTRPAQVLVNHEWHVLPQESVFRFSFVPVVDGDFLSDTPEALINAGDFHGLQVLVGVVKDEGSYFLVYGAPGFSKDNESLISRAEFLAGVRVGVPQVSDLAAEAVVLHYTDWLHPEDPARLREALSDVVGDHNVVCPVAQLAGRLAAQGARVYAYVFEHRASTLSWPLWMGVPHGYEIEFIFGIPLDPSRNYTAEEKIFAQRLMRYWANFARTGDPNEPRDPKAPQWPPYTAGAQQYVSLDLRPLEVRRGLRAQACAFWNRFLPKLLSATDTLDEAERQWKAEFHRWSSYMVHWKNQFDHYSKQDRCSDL
# PROCEDURE_SUMMARY: biochemical
# CONDITION_SUMMARY: mean of triplicate
pIC50: −log10 of the molar value.
Recorded pIC50 by entry
READOUT_TYPE: pIC50

>>> df
                                   compound                              assay_target  numeric_readout
0  COc1ccc(C(=O)/C=C/c2ccc(OCCN3CCCC3)cc2)c(O)c1 [Compound 8b]  human recombinant AChE (Homo sapiens, UniProt P22303)             4.89
1  COc1cc(O)c(C(=O)/C=C/c2ccc(OCCN3CCCC3)cc2)c(OC)c1 [Compound 8f]  human recombinant AChE (Homo sapiens, UniProt P22303)             4.73
2  COc1cc(O)c(C(=O)/C=C/c2ccc(OCCN3CCCCC3)cc2)c(OC)c1 [Compound 8e]  human recombinant AChE (Homo sapiens, UniProt P22303)             5.34
3  CCN(CC)C(=O)Cc1ccc(/C=C/C(=O)c2c(O)cc(OC)cc2OC)cc1 [Compound 4c]  human recombinant AChE (Homo sapiens, UniProt P22303)             5.48
4  COc1ccc(C(=O)/C=C/c2ccc(OCCN3CCCCC3)cc2)c(O)c1 [Compound 8a]  human recombinant AChE (Homo sapiens, UniProt P22303)             5.38
5  COc1cc(O)c(C(=O)/C=C/c2ccc(OCCN3CCCC3)cc2)cc1OC [Compound 8d]  human recombinant AChE (Homo sapiens, UniProt P22303)             4.80

###

# ASSAY_TARGET: human recombinant AChE (Homo sapiens, UniProt P22303)
# PROCEDURE_SUMMARY: biochemical
# CONDITION_SUMMARY: IC50 (BuChE)/IC50 (AChE)
Quick reference: Selectivity index of the listed items.
READOUT_TYPE: Selectivity index

In [3]: df
Out[3]:
                                 mol_smiles  censoring_operator  numeric_readout
0  COc1ccc(C(=O)/C=C/c2ccc(OCCN3CCCC3)cc2)c(O)c1                   =              5.1
1  COc1cc(O)c(C(=O)/C=C/c2ccc(OCCN3CCCCC3)cc2)c(OC)c1                   =              4.0
2  COc1ccc(C(=O)/C=C/c2ccc(OCCN3CCCCC3)cc2)c(O)c1                   >               24
3  COc1cc(O)c(C(=O)/C=C/c2ccc(OCCN3CCCC3)cc2)c(OC)c1                   =              1.7
4  COc1cc(O)c(C(=O)/C=C/c2ccc(OCCN3CCCC3)cc2)cc1OC                   =              5.7
5  CCN(CC)C(=O)Cc1ccc(/C=C/C(=O)c2c(O)cc(OC)cc2OC)cc1                   >               30

###

# ASSAY_TARGET: human recombinant AChE (Homo sapiens)
# PROCEDURE_SUMMARY: biochemical
# CONDITION_SUMMARY: 10 μM; mean of triplicate
Response key: rule met means inhibition at 10 µM >= 60%; rule not met means inhibition at 10 µM < 60%.

                                 mol_smiles      category
0  CCN(CC)C(=O)Cc1ccc(/C=C/C(=O)c2ccc(OC)cc2O)cc1      rule met
1  COc1ccc(C(=O)/C=C/c2ccc(CC(=O)N3CCCC3)cc2)c(O)c1  rule not met
2  COc1cc(O)c(C(=O)/C=C/c2ccc(OCCN3CCCC3)cc2)cc1OC      rule met
3  COc1cc(O)c(C(=O)/C=C/c2ccc(OCCN3CCCCC3)cc2)cc1OC  rule not met
